The measurements presented in this section are drawn from patent US9187472B2.

target: NAMPT (human, recombinant, C-terminally His-tagged) (Homo sapiens); assay: Time-Resolved Fluorescence Resonance Energy Transfer (TR-FRET) Binding Assay of NAMPT; conditions: without substrates; 6.8 nM NAMPT, 200 nM probe, 3 hours equilibration
Sequence (P43490 whole entry): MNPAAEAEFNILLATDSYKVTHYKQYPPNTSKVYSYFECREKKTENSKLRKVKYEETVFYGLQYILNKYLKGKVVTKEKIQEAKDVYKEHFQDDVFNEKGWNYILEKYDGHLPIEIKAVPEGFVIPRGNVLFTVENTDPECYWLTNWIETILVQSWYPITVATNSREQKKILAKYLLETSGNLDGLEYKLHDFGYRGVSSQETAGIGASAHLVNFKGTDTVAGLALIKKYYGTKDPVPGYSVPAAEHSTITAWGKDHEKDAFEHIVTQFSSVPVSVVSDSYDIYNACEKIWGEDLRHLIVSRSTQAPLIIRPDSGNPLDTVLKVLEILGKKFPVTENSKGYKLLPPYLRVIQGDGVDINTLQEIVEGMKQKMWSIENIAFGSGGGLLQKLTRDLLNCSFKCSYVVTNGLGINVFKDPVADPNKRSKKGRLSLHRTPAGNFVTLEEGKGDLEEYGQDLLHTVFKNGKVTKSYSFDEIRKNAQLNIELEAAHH
IC50: recorded values
measuredProperty: IC50 (µM)

| compound | qualifyingSign | measuredNumber |
| --- | --- | --- |
| O=C(NCc1ccn2ccnc2c1)c1ccc(C2CCN(C(=O)C3CCCCC3)C2)cc1 (stereo not shown) | = | 0.751 |
| COc1cccc(C(=O)N2CC(c3ccc(C(=O)NCc4ccn5ccnc5c4)cc3)C2)c1 | = | 0.213 |
| CC(C)Cn1nccc1-c1ccc(C(=O)NCc2ccn3ccnc3c2)o1 | = | 1.52 |
| Cc1noc(C)c1C(=O)N1CCC(c2ccc(C(=O)NCc3ccn4ccnc4c3)s2)C1 (stereo not shown) | = | 0.0972 |
| O=C(NCc1ccn2ccnc2c1)c1ccc(C2CCN(C(=O)c3cc(F)cc(F)c3)CC2)cc1 | = | 0.378 |
| O=C(NCc1ccn2ccnc2c1)c1ccc(C2CCN(C(=O)Cc3cc(F)cc(F)c3)C2)s1 (stereo not shown) | = | 0.135 |
| O=C(CN1CCOCC1)Nc1ccc(NC(=O)Nc2ccc3nccn3c2)cc1 | = | 0.294 |
| O=C(NCc1ccn2ccnc2c1)Nc1ccc(C2CCN(C(=O)c3ccccc3)CC2)cc1 | = | 0.0136 |
| CC(=O)N1CCC(Oc2ccc(C(=O)NCc3ccn4ccnc4c3)cc2)CC1 | = | 1.87 |
| O=C(NCc1ccn2ccnc2c1)Nc1ccc(C2CCN(C(=O)CC3CCCO3)CC2)cc1 (stereo not shown) | = | 0.155 |
| C[C@@H](O)Cn1cc(-c2ccc(C(=O)NCc3ccn4ccnc4c3)s2)cn1 | = | 0.0662 |
| O=C(NCc1ccn2ccnc2c1)Nc1ccc(C2=CCN(C(=O)CC3CCOCC3)CC2)cc1F | = | 0.453 |
| O=C(NCc1ccn2ccnc2c1)c1cnc(C2CCN(C(=O)c3ccccc3)CC2)s1 | = | 0.109 |
| CC(C)Cn1cc(-c2ccc(NC(=O)Nc3ccc4nccn4c3)cc2)cn1 | = | 0.264 |
| O=C(NCc1ccn2ccnc2c1)c1ccc(C2CCN(C(=O)CCC(F)(F)F)C2)s1 (stereo not shown) | = | 0.0917 |
| O=C(NCc1ccn2ccnc2c1)Nc1ccc(O[C@@H]2CCN(C(=O)c3ccc(Cl)cc3)C2)cc1 | = | 0.272 |
| CC[C@H](C)C(=O)N1CC[C@@H](Oc2ccc(C(=O)NCc3ccn4ccnc4c3)cc2)C1 | = | 1.47 |
| O=C(NCc1ccn2ccnc2c1)c1ccc(C2CCN(C(=O)CC(F)(F)F)C2)s1 (stereo not shown) | = | 0.266 |
| O=C(NCc1ccc2nccn2c1)c1cnc(N2CCc3ccccc3C2)s1 | = | 1.77 |
| O=C(Nc1ccc(C(=O)NCC2CCCCO2)cc1)Nc1ccc2ncc(Cl)n2c1 (stereo not shown) | = | 0.0226 |
| O=C(Nc1ccc(C2CCN(C(=O)c3ccccc3)CC2)cc1)Nc1ccc2nccn2c1 | = | 0.0465 |
| CC(C)C(=O)N1CCC(c2ccc(NC(=O)Nc3ccc4nccn4c3)cc2)CC1 | = | 0.247 |
| O=C(NCc1ccn2ccnc2c1)Nc1ccc(OC2CCN(C(=O)c3cc(F)ccc3F)CC2)cc1 | = | 0.14 |
| CCC(=O)N1CCC(c2ccc(C(=O)NCc3ccn4ccnc4c3)s2)C1 (stereo not shown) | = | 0.25 |
| O=C(NCc1ccn2ccnc2c1)c1ccc(C2CCN(C(=O)c3ccsc3)C2)cc1 (stereo not shown) | = | 0.164 |
| O=C(NCc1ccn2ccnc2c1)c1ccc(C2CCN(C(=O)C3CC3)C2)s1 (stereo not shown) | = | 0.186 |
| O=C(NCc1ccn2ccnc2c1)c1ccc(C2CCN(C(=O)c3ccccn3)C2)s1 (stereo not shown) | = | 0.103 |
| CC(C)OCC(=O)N1CCC(c2ccc(C(=O)NCc3ccn4ccnc4c3)cc2)CC1 | = | 0.451 |
| CC(C)N1CCN(c2ncc(C(=O)NCc3ccn4ccnc4c3)s2)CC1 | > | 10 |
| O=C(NCc1ccc2nccn2c1)c1ccc(-c2cnn(CC3CCCO3)c2)s1 (stereo not shown) | = | 0.0794 |
| N#CC1(C(=O)N2CCC(c3ccc(C(=O)NCc4ccn5ccnc5c4)s3)C2)CC1 (stereo not shown) | = | 0.0875 |
| CCn1cc(-c2ccc(C(=O)NCc3ccn4ccnc4c3)s2)cn1 | = | 0.0561 |
| O=C(NCc1ccn2ccnc2c1)Nc1ccc(C2CCN(C(=O)c3ccccc3)C2)cc1 (stereo not shown) | = | 0.0495 |
| O=C(NCc1ccn2ccnc2c1)c1ccc(C2CCN(C(=O)c3cccc(OC(F)(F)F)c3)C2)cc1 (stereo not shown) | = | 0.5 |
